assay target: T1, Su(dx) WW1 domain (Drosophila, UniProt Q9Y0H4 352-398)
T1 chain (looked up): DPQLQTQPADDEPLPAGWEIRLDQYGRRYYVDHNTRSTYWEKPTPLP
assay text: ITC
Known Kd of a selection of binders

{"columns": ["binder", "unit spec", "Kd"],
 "data": [
  ["GPPPPPYPG [WBP1 peptide]", "µM", 125],
  ["AKQPPSYEDCIK [Notch PY motif peptide N1]", "µM", 214]
]}
